Origin of measurements: ChEMBL document CHEMBL1201862

ASSAY SYSTEM: Peroxisome proliferator-activated receptor gamma/Nuclear receptor coactivator 2 (Homo sapiens)
Sequence (P37231 whole entry): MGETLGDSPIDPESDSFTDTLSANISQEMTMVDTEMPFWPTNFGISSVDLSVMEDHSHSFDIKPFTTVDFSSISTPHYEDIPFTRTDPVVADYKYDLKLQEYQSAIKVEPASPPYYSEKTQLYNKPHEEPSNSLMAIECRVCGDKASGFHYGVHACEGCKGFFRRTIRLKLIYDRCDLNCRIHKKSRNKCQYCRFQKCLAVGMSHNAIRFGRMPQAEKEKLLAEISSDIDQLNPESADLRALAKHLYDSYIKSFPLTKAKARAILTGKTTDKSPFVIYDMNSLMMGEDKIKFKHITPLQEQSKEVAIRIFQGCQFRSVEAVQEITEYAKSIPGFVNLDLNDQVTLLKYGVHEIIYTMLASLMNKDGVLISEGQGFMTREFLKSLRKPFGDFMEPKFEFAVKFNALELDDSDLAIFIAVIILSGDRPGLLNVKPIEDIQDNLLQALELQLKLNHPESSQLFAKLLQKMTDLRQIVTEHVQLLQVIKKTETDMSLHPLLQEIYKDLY
Sequence (Q15596 whole entry, further chain): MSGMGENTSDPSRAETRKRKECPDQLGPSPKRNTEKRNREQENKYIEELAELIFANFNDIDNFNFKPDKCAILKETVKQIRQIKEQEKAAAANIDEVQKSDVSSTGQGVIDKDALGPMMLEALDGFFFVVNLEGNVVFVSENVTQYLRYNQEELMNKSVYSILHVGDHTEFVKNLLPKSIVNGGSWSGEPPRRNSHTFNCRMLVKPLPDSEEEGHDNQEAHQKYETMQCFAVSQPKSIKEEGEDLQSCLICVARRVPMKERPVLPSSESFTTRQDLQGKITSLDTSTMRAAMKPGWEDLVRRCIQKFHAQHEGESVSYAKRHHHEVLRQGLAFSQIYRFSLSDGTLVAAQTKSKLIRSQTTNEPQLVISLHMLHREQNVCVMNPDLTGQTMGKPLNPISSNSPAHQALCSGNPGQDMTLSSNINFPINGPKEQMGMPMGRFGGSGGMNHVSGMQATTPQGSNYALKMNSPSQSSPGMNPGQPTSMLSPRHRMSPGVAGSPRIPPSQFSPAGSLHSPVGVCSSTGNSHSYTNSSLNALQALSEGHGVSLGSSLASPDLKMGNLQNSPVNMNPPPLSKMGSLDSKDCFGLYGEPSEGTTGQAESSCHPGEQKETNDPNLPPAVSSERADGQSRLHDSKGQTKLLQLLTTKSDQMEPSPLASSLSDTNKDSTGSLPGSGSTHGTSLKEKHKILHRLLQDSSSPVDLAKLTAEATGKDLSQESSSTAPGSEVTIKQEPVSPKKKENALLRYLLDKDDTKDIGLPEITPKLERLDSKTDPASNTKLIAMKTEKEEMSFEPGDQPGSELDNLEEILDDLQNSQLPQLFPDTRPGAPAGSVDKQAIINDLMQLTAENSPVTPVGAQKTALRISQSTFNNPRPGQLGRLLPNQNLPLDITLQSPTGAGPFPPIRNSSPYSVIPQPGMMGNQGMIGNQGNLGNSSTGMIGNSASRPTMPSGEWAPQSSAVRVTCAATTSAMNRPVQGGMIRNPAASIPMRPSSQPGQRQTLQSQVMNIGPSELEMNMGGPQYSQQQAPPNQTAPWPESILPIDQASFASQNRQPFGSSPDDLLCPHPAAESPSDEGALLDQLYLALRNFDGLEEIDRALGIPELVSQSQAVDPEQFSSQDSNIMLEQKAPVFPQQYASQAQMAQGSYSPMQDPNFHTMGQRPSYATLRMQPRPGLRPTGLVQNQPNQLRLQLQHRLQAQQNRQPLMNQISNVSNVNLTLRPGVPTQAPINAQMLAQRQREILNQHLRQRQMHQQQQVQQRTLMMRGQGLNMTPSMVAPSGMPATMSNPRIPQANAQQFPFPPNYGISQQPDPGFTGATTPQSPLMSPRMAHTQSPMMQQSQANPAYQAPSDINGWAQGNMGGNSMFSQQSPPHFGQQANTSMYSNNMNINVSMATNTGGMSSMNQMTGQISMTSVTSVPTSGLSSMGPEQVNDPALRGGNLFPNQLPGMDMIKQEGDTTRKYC
METHOD SUMMARY: TR-FRET dose response biochemical High Throughput Screening assay for agonists of the steroid receptor coactivator 2 (SRC-2) recruitment by the peroxisome proliferator-activated receptor gamma (PPAR gamma): non-selective agonists. [Related pubchem assays: 1297, 1032 ]
Assay type: functional
Calls of active or inactive are those of the source.
Each item that follows carries a reported EC50.

Field: example entries. Status: answers known.
| COMPOUND | EC50 |
| --- | --- |
| C=CCn1c(NC(C)c2cc(Cl)ccc2O)nc2ccccc21 (stereo not given) | > 79.4 µM (not active) |
| N#Cc1c(-c2ccccc2)cc(C2CC2)nc1SCC(=O)c1cccs1 | 7.18 µM (active) |
| Cn1c(=O)cc(SCC(=O)NCCCN2CCN(c3ccccc3F)CC2)c2ccccc21 | > 79.4 µM (not active) |

Tell me the measured EC50 of Cn1c(S)nnc1-c1sc2cc(C(F)(F)F)cnc2c1-c1cccs1 , please.
12.6 µM (not active)

Entry under review: CN(CCCNC(=O)CSc1cc(=O)n(C)c2ccc(Cl)cc12)Cc1ccccc1 . Reported EC50?
> 79.4 µM (not active)

====

ASSAY SYSTEM: Zinc finger protein mex-5 (Caenorhabditis elegans)
Sequence (Q9XUB2 whole entry): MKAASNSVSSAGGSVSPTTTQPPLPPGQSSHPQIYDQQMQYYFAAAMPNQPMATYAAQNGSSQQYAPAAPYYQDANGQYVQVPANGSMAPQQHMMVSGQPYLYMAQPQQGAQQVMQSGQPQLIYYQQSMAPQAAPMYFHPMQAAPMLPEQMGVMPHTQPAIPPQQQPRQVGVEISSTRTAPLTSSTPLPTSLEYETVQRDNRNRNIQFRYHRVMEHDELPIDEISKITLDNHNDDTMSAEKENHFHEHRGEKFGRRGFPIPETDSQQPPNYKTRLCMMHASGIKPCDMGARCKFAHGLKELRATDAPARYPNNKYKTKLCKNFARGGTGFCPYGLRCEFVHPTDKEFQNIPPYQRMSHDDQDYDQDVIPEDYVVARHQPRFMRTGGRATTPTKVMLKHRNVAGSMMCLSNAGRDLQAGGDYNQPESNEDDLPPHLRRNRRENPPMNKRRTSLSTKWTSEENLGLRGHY
METHOD SUMMARY: potency of MEX-5 RNA-binding blockers – biochemical, C. elegans, fluorescence polarization, dose response (AID 1960)
Active and inactive are the calls of the source.
Measured EC50 by item

Observe how each entry below is paired with its result.
| MOLECULE | ASSAY SYSTEM | OBSERVATION TYPE | RESULT |
| --- | --- | --- | --- |
| COc1cccc(C2C(C#N)=C(N)OC3=C2C(=O)CC(c2ccco2)C3)c1OCc1ccc(F)cc1 (stereo unspecified) | Zinc finger protein mex-5 (Caenorhabditis elegans) | EC50 | > 300 µM (not active) |
| COc1ccccc1N1C(=O)S/C(=C\c2ccc(C)s2)C1=O | Zinc finger protein mex-5 (Caenorhabditis elegans) | EC50 | 10.1 µM (inconclusive) |
| CCNC(=O)c1cc2c(=O)n3cccc(C)c3nc2n(Cc2ccc(C)cc2)c1=N | Zinc finger protein mex-5 (Caenorhabditis elegans) | EC50 | 45.5 µM (active) |

Which measured EC50 value corresponds to Cc1ccc(CN(C)C(=O)CC2C(=O)NCCN2CC2CCCCC2)cc1 (stereo unspecified) ?
> 300 µM (not active)

Name the reported EC50 value associated with the molecule COc1ccc(CCC(=O)Nc2cccc(Cl)c2)cc1
> 300 µM (not active)

# query: EC50 of entry CCOC(=O)C1=C(C)OC(N)=C(C#N)C1c1ccc(O)c(OC)c1 (stereo unspecified)
> 300 µM (not active)

====

ASSAY SYSTEM: UniProt P9WMR3
Sequence (P9WMR3 whole entry): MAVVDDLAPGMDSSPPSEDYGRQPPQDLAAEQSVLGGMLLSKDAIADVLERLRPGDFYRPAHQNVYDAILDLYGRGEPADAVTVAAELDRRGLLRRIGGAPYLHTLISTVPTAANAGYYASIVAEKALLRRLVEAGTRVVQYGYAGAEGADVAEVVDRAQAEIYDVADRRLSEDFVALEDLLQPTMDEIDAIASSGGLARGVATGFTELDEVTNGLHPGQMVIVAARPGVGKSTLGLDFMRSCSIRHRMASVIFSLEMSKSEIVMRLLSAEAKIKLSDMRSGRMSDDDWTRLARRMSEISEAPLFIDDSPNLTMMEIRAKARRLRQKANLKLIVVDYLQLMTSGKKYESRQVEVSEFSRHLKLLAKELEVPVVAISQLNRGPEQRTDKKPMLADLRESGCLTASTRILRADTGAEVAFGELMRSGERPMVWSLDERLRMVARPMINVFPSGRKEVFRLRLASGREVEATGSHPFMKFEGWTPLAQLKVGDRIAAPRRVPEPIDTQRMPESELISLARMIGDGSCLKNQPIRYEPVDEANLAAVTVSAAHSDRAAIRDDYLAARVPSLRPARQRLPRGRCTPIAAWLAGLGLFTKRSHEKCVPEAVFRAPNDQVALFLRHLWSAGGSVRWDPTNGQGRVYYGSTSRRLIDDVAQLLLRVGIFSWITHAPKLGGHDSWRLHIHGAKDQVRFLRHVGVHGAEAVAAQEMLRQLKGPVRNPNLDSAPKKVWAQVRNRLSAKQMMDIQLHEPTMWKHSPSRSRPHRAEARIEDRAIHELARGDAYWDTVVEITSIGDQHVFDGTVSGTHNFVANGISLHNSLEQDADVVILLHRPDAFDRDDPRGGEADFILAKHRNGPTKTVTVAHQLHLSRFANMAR
METHOD SUMMARY: DnaB intein splicing inhibitors, dose response, biochemical, cell-free fluorescence (AID 449749)
Assay type: functional
Calls of active or inactive are those of the source.
Consider the following compounds and their measured AC50 readings.

Please review the following examples before continuing.
| COMPOUND | RESULT |
| --- | --- |
| CCN(CC)CCN1C(=O)C(O)=C(C(C)=O)C1c1ccccc1[N+](=O)[O-] (stereo unspecified) | 10 µM (active) |
| CCOC(=O)c1c(CC(C)C)csc1NC(=O)CCl | 9.8 µM (active) |
| O=C1C=C(Nc2ccccc2C(=O)O)c2ccccc2C1=O | 2.21 µM (active) |
| CCOC(=O)c1cnc(-n2[nH]c(C)c(Cc3ccccc3)c2=O)[nH]c1=O | 9.77 µM (active) |
| CCCCOP(=O)(OCCCC)C1(NS(=O)(=O)c2ccccc2)C=CC(=O)c2ccccc21 (stereo unspecified) | 4.8 µM (active) |

Now examine the next entry.
Record request: AC50 value, item O=c1c(Cl)nc2cc(Cl)ccc2n1CCNc1ncc(C(F)(F)F)cc1Cl
> 120 µM (inactive)

====

ASSAY SYSTEM: RNA-binding protein pos-1 (Caenorhabditis elegans)
Sequence (G5EF15 whole entry, the tested form may be a part): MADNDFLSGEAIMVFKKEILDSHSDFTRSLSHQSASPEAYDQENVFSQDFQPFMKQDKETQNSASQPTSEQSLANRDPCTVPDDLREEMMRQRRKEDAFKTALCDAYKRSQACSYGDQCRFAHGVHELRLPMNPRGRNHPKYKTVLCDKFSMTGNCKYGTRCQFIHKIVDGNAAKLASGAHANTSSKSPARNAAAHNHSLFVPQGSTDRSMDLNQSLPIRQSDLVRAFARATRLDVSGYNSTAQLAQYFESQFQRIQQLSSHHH
METHOD SUMMARY: disruptors of C. elegans POS-1 RNA interaction – biochemical, fluorescence polarization, dose response (AID 1964);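 further: purified POS-1 fused to maltose binding protein made in E. coli; potency of compounds blocking POS-1 binding to fluorescent RNA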
Calls of active or inactive are those of the source.
Recorded EC50, one value per entry.

// worked examples, EC50 included
| MOLECULE | RESULT |
| --- | --- |
| CCOC(=O)c1cnc(-n2nc(C)cc2C)nc1NNc1nc(C)cc(C)n1 | 65.5 µM (active) |
| COc1ccccc1N1C(=O)S/C(=C\c2ccc(C)s2)C1=O | > 300 µM (not active) |
| Oc1ccc(CCNc2c3ccccc3nc3ccccc23)cc1O | > 300 µM (not active) |

Requested field: EC50. Item: CCOC(=O)C1=C(C)OC(N)=C(C#N)C1c1ccc(O)c(OC)c1 (stereo unspecified)
> 300 µM (not active)

I'd like to know its EC50. The molecule in question is Cc1ccc(CN(C)C(=O)CC2C(=O)NCCN2CC2CCCCC2)cc1 (stereo unspecified)
175 µM (active)

Looking for the measured EC50 of CCOC(=O)c1ccc(-n2c(CCC(=O)O)ccc2-c2ccc(F)cc2)cc1 , can you help?
> 300 µM (not active)

====

ASSAY SYSTEM: Nonstructural protein 1 (Influenza A virus, UniProt Q194T2)
Sequence (Q194T2 whole entry): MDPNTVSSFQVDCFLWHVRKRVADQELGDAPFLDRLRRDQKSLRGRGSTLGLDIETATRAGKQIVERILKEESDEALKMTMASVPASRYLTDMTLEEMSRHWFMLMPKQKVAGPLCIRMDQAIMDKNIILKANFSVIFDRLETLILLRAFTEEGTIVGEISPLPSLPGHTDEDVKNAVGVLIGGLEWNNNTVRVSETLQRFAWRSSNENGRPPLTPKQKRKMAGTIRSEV
Type: functional, Influenza A virus (A/California/07/2009(H1N1))
The source made the active and inactive calls.
OBSERVATION TYPE: IC50

| COMPOUND | IC50 |
| --- | --- |
| Cc1cccc2sc(NNC(=O)c3ccc(S(=O)(=O)N4CCc5ccccc5C4)cc3)nc12 | > 100 µM (active) |
| Nc1nnnn1CC(=O)N/N=C/c1cc([N+](=O)[O-])ccc1O | 3.13 µM (active) |
| C/C(=N\NC(=O)c1c[nH]c2ccccc12)c1ccccn1 | 3.17 µM (active) |

Now turn to the next compound.
Query IC50 on Nonstructural protein 1 (Influenza A virus, UniProt Q194T2) for COc1ccc(C2CC(=O)Oc3c(C(CCN4CCCCC4)c4ccc(N(C)C)cc4)c(OC)cc(OC)c32)cc1 (centres undefined)
18 µM (active)

====

ASSAY SYSTEM: Cytochrome P450 1A2 (Homo sapiens, UniProt P05177);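 further: PubChem cytochrome P450 panel assay, CYP1A2 panel member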
Sequence (P05177 whole entry): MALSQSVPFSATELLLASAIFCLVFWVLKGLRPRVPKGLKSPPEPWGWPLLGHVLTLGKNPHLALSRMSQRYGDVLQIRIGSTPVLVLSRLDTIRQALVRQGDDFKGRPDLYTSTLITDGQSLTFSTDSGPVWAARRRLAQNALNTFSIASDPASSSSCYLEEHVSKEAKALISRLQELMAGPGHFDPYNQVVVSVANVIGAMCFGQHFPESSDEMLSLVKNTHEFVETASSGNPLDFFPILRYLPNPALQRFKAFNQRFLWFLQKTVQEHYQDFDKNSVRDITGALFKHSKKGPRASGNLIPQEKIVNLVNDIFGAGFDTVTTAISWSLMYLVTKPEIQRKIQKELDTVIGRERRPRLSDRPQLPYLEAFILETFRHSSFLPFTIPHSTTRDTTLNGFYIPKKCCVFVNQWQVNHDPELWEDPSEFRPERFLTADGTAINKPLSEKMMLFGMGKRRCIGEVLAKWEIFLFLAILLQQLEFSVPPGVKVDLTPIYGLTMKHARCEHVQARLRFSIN
OBSERVATION TYPE: AC50

| COMPOUND | RESULT |
| --- | --- |
| O=C(Nc1cccc(Cl)c1)N1CCN2C(=O)c3ccccc3C12c1ccccc1 (stereo not given) | 3.16 µM (inconclusive) |
| C=CCn1c(P(=O)(O)c2ccccc2)nc2ccccc21 | 15.8 µM (inconclusive) |
| CCOC(=O)CSc1nnc(CNC(=O)c2ccc(OC)cc2)n1C1CCCCC1 | 5.01 µM (inconclusive) |
| O=C(Nc1ncc(Cc2cccc(Cl)c2)s1)C1=NCCN1 | 31.6 µM (inconclusive) |

AC50 lookup needed for O=c1c(-c2cc(F)cc(F)c2)nc2cnc(N3CCOCC3)nc2n1CCc1ccccc1 , thanks.
2.51 µM (inconclusive)

So what does the record say about AC50 for O=C1CC(c2cccc(F)c2)SC(N(c2ccccc2)c2ccccc2)=N1 (stereo not given) ?
8.91 µM (inconclusive)

Item under review: CN(C)C(=O)c1ccc(-c2ccc3ncnc(NC4CCNCC4)c3c2)cc1 . Reported AC50?
20 µM (inconclusive)

Quick check: AC50 of CCCn1c(=N)n(CC(=O)c2ccco2)c2ccccc21 ?
10 µM (inconclusive)

# query: AC50 of entry C/C(CC(=O)NCc1ccco1)=N\NC(=O)Cc1cccc2ccccc12
12.6 µM (inconclusive)
